test system: PBMC; experiment: Cytotoxicity against human PBMC assessed reduction in cell viability after 5 days by MTT assay; format: cell-based; conditions: pbmc, 120 h
EXPERIMENTAL_ENDPOINT: CC50 (µM)
Response body: numeric value in µM, unit text excluded.

Query: Endpoint output: CC50 of `C[C@@]1(O)[C@H](O)[C@@H](CO)O[C@H]1n1ccc(N)nc1=O` . Value?
Reply: 60

###

test system: cytochrome c oxidase subunit 2 DNA level; test: Mitochondrial toxicity in human HepG2 cells assessed as inhibition of cytochrome c oxidase subunit 2 DNA level followed by medium plus drugs replenishment every 3 to 4 days for 14 days relative to control; assay type: cell-based
EXPERIMENTAL_ENDPOINT: IC50 at 14 days

Worked set:
CC(C)OC(=O)[C@H](C)N[P@](=O)(OC[C@H]1O[C@@H](n2ccc(=O)[nH]c2=O)[C@](C)(F)[C@@H]1O)Oc1ccccc1 [SOFOSBUVIR] :: > 50 µM
Nc1ccn([C@H]2CC[C@@H](CO)O2)c(=O)n1 [ZALCITABINE] :: < 10 µM
CC(C)OC(=O)[C@H](C)N[P@@](=O)(OC[C@H]1O[C@@H](n2ccc(=O)[nH]c2=O)C(F)(Br)C1O)Oc1ccccc1 (single isomer, unassigned) :: > 50 µM

Then this molecule:
Query: Consider the molecule CC(C)OC(=O)[C@H](C)NP(=O)(OC[C@H]1O[C@@H](n2ccc(=O)[nH]c2=O)[C@](F)(Br)[C@H]1O)Oc1ccccc1 (mixture of isomers) and give its measured IC50 at 14 days.
Reply: > 50 µM

###

tested on: cytochrome c oxidase subunit 2 DNA level; assay: Mitochondrial toxicity in human HepG2 cells assessed as inhibition of cytochrome c oxidase subunit 2 DNA level at 12.5 uM followed by medium plus drugs replenishment every 3 to 4 days for 14 days relative to control; type: cell-based
inhibition at 336 h, 12.5 µM overview
Reply numerically in %, unit not repeated.

CC(C)OC(=O)[C@H](C)N[P@](=O)(OC[C@H]1O[C@@H](n2ccc(=O)[nH]c2=O)[C@](C)(F)[C@@H]1O)Oc1ccccc1 :: 6.7

Alright, here's another compound for you.
Query: // inhibition at 336 h, 12.5 µM lookup, key: CC(C)OC(=O)[C@H](C)N[P@](=O)(OC[C@H]1O[C@@H](n2ccc(=O)[nH]c2=O)[C@@](F)(Br)[C@@H]1O)Oc1ccccc1 (single isomer, unassigned)
Reply: 23

###

experiment: Half life in human intestinal microsomes by LC/MS/MS analysis; format: ADME, Intestine, Microsome
Each entry below lists one item and its recorded half-life value.

CC(C)OC(=O)[C@H](C)N[P@@](=O)(OC[C@H]1O[C@@H](n2ccc(=O)[nH]c2=O)C(F)(Br)C1O)Oc1ccccc1 (single isomer, unassigned) :: 2.2 h

Proceeding to the next compound to report its half-life.
Query: Item CC(C)OC(=O)[C@H](C)N[P@](=O)(OC[C@H]1O[C@@H](n2ccc(=O)[nH]c2=O)[C@@](F)(Br)[C@@H]1O)Oc1ccccc1 (single isomer, unassigned) has what recorded half-life?
Reply: > 2.42 h

###

Below is a list of entries, each paired with its recorded microsomal CLint value.
assay: in vitro; settings: human, liver microsomes
Description: Intrinsic clearance in human liver microsomes in presence of NADPH regenerating system by LC/MS/MS analysis
State just the number; it will be interpreted in µL/min/mg.

CC(C)OC(=O)[C@H](C)N[P@](=O)(OC[C@H]1O[C@@H](n2ccc(=O)[nH]c2=O)[C@@](F)(Br)[C@@H]1O)Oc1ccccc1 (single isomer, unassigned) :: 70.2

Okay, next one:
Query: Which microsomal CLint is reported for this compound? CC(C)OC(=O)[C@H](C)N[P@@](=O)(OC[C@H]1O[C@@H](n2ccc(=O)[nH]c2=O)C(F)(Br)C1O)Oc1ccccc1 (single isomer, unassigned)
Reply: 75.3

Data provenance is ChEMBL document CHEMBL4411318.
